TARGET SYSTEM: Homeobox protein Hox-A13 (Mus musculus)
ASSAY REMARKS: inhibitors of HoxA13-DNA binding, primary screen, biochemical, fluorescence polarization, labeled oligonucleotide (AID 1185)
TEST CONTEXT: 15 min, higher = more signal, called active from +8 up or from −8 down
Active and inactive are the calls of the source.
z-score reference

INPUT SMILES | TARGET SYSTEM | RESULT TYPE | RECORDED VALUE
CC(C)[C@@H](OCc1ccccc1)[C@H](C)CON=C1[C@H]2CCn3c(=O)n(-c4ccccc4)c(=O)n3[C@H]2[C@H](O)[C@@H]2O[C@H]12 | Homeobox protein Hox-A13 (Mus musculus) | z-score | -5.16 (inactive)
O=C1C=C[C@@H](O)[C@@H]2[C@@H]3C(=O)N(c4cccc(Oc5ccccc5)c4)C(=O)[C@@H]3CC[C@@H]12 | Homeobox protein Hox-A13 (Mus musculus) | z-score | -0.827 (inactive)
CC(=O)OC[C@H]1O[C@@H](ON=C(C)CCN2CCCCc3nc(C)c(C)cc32)[C@H](OC(C)=O)[C@@H](OC(C)=O)[C@@H]1OC(C)=O | Homeobox protein Hox-A13 (Mus musculus) | z-score | -3.93 (inactive)
COc1cccc([C@H](O)Cn2cc(-c3ccc(CON=C(C)C)cc3)nn2)c1 | Homeobox protein Hox-A13 (Mus musculus) | z-score | -4.2 (inactive)
C[C@@H]1CC[C@H]2C(=O)N3[C@@H](CC[C@@H](C)[C@@H]3c3ccc(Br)cc3)C(=O)N2[C@H]1c1ccc(Br)cc1 | Homeobox protein Hox-A13 (Mus musculus) | z-score | -3.21 (inactive)

Exercise: Item: "CC(=O)OC[C@H]1O[C@H](C#CCC2CCCCC2)C=C[C@@H]1OC(C)=O" Test system: Homeobox protein Hox-A13 (Mus musculus) Read-out: z-score Value: ?
Key: -5.27 (inactive)

Exercise: For Homeobox protein Hox-A13 (Mus musculus), provide z-score of "CCCNC(=O)OC[C@H]1O[C@H](CCON=C[C@@H](C)[C@H](OCc2ccccc2)C(C)C)C=C[C@@H]1Oc1ccc(OC)cc1" please.
Key: -3.32 (inactive)
